mass density: recorded values
Conditions: 363.15 K; 101.33 kPa; Liquid; Vibrating tube method
Reply with just the number (in kg/m3).

{"molecule": "CCCCCCC(=O)OC [methyl heptanoate]", "units-text": "kg/m3", "mass density": 814.17}

Report measured mass density; entry is CCCCCCCC(=O)OCC [ethyl octanoate] 805.97

====

refractive index: recorded values
Experiment: refractive index (Na D-line) (dimensionless)
Conditions: 313.15 K; 101.33 kPa; Liquid; Standard Abbe refractometry
Just the number, please.

Past entries and their recorded results:
{"compound": "CCCCCCCCCCCC(=O)OC [methyl dodecanoate]", "refractive index": 1.42383}
{"compound": "CCCCCCCCCCCCCC(=O)OC [methyl tetradecanoate]", "refractive index": 1.4289}

Report measured refractive index; entry is CCCCCCCC(=O)OC [methyl octanoate] 1.40854

Report measured refractive index; entry is CCCCCCCCCC(=O)OC [methyl decanoate] 1.41726

Report measured refractive index; entry is CCCCCCCC(=O)OCC [ethyl octanoate] 1.40926

Report measured refractive index; entry is CCCCCC(=O)OC [methyl hexanoate] 1.3961

Report measured refractive index; entry is CCCCCCCCCC(=O)OCC [ethyl decanoate] 1.41729

Report measured refractive index; entry is CCCCCC(=O)OCC [ethyl hexanoate] 1.39829
